Here, each record is paired with measured max. RhlR inhibition (%) data.
Target: RhlR (Pseudomonas aeruginosa, UniProt P54292)
Construct: expressed in transfected cells; host or cells: E. coli JLD271 (K-12 ΔlacX74 sdiA271::Cam) carrying pJN105-R2 (RhlR expression) and pSC11-rhlI (rhlI'-lacZ reporter)
Sequence (P54292 whole entry): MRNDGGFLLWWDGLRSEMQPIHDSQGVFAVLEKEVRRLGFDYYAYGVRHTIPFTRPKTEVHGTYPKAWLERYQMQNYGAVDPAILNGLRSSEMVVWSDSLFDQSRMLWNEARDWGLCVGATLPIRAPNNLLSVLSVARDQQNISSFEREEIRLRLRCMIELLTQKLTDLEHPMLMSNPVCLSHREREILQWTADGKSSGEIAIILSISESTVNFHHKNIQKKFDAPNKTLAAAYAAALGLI
Test: E. coli (JLD271) RhlR reporter antagonism assay, in competition with BHL
Assay type: cell-based
Conditions: E. coli RhlR reporter; BHL at 10 μM set to 0%, media control set to 100%
quantity name: max. RhlR inhibition (%)

# smiles record, recorded number
data = [
    ("O=C1OCC[C@@H]1NS(=O)(=O)c1ccc(F)c(Cl)c1", 90),
    ("O=C1OCC[C@@H]1NS(=O)(=O)c1cc(Cl)ccc1Cl", 92),
    ("O=C1OCC[C@@H]1NS(=O)(=O)c1ccc(Cl)cc1", 96),
    ("COc1cccc(S(=O)(=O)N[C@H]2CCOC2=O)c1", 88),
    ("O=C1OCC[C@@H]1NS(=O)(=O)c1cccc(Cl)c1Cl", 95),
    ("O=C1OCC[C@@H]1NS(=O)(=O)c1c(Cl)cccc1Cl", 86),
    ("O=C1OCC[C@@H]1NS(=O)(=O)Cc1ccc([N+](=O)[O-])cc1", 97),
    ("O=C1OCC[C@@H]1NS(=O)(=O)Cc1ccc(Br)cc1", 77),
    ("O=C1OCC[C@@H]1NS(=O)(=O)c1ccc(F)c(C(F)(F)F)c1", 84),
    ("O=C1OCC[C@@H]1NS(=O)(=O)c1ccc(Cl)c(Cl)c1Cl", 80),
    ("Cc1ccc(CS(=O)(=O)N[C@H]2CCOC2=O)cc1", 90),
    ("O=C1OCC[C@@H]1NS(=O)(=O)c1ccc(F)cc1", 97),
    ("O=C1OCC[C@@H]1NS(=O)(=O)c1ccc(F)c([N+](=O)[O-])c1", 62),
]
